# Test system: Caco-2
# Test: Cytotoxicity against human Caco2 cells after 72 hrs by XTT assay
# Format: functional, cell-based
# Experimental context: Caco-2, 72 h
pIC50: −log10 of the molar value.
Property measured: pIC50

Molecule	Property measured	Result
CC[C@H](C)C[C@H](C)[C@H]1OC(=O)[C@H](Cc2ccccc2)NC(=O)/C(C)=C/[C@H](C)[C@@H](O)/C(C)=C/[C@H](C)[C@H](OC(C)=O)/C(C)=C/[C@@H]1C [METACRIDAMIDE A]	pIC50	5.21

---

# Test: Cytotoxicity against human HepG2/C3A cells after 72 hrs by XTT assay
# Assay type: functional, cell-based
pIC50: −log10 of the molar value.
Property measured: pIC50

Molecule	Result
CC[C@H](C)C[C@H](C)[C@H]1OC(=O)[C@H](Cc2ccccc2)NC(=O)/C(C)=C/[C@H](C)[C@@H](O)/C(C)=C/[C@H](C)[C@H](O)/C(C)=C\[C@@H]1C [METACRIDAMIDE B]	4.74
CC[C@H](C)C[C@H](C)[C@H]1OC(=O)[C@H](Cc2ccccc2)NC(=O)/C(C)=C/[C@H](C)[C@@H](O)/C(C)=C/[C@H](C)[C@H](OC(C)=O)/C(C)=C/[C@@H]1C [METACRIDAMIDE A]	4.97
